Below: a set of entries, each annotated with reported inhibition at 1 µM.
- SYSTEM TESTED: JAK1 (Homo sapiens, UniProt P23458)
- Construct: purchased Invitrogen
- Sequence (P23458 whole entry): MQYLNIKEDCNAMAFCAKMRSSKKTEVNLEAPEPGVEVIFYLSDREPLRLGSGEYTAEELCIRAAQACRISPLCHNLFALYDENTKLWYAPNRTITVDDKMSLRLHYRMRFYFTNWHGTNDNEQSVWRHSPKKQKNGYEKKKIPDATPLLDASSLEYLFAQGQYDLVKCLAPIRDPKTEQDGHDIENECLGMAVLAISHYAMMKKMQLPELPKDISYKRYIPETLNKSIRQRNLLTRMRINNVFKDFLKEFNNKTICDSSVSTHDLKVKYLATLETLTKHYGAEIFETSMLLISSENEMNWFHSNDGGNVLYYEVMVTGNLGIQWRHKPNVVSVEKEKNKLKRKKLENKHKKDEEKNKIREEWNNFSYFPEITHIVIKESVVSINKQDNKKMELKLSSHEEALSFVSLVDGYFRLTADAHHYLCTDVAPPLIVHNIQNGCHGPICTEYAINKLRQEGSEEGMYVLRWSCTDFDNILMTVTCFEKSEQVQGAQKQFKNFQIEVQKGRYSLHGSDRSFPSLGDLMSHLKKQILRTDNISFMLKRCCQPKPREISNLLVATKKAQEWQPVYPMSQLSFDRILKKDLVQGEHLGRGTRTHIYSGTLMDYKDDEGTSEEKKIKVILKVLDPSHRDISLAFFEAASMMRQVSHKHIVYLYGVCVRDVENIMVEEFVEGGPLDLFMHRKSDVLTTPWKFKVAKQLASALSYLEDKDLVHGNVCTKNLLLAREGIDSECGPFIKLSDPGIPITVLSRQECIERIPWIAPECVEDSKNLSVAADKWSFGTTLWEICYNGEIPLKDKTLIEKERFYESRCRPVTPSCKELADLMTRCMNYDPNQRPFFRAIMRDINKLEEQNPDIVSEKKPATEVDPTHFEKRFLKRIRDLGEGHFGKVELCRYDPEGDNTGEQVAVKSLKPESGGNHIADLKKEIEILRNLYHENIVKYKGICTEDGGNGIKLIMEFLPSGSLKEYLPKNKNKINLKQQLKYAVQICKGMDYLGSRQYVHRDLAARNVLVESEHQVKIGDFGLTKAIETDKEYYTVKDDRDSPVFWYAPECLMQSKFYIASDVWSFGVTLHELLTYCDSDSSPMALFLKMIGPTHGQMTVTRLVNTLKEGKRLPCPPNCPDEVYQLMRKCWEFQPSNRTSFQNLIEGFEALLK
- PROCEDURE TEXT: JAK1 enzyme inhibition test (LANCE method)
- Assay type: biochemical
- MEASUREMENT SETUP: 1 μM test compound; read-out: JAK1 enzyme inhibitory activity (%, 1 μM)
VALUE TYPE: inhibition at 1 µM (%)

> print(dat)
                                    molecule  reported.measurement
 1  CC(=O)N1CCN(c2cc(-c3cn([C@@H](C)C(C)C)c(=O)c4c(N)n[nH]c34)nn2C)CC1 [Example 11]                    98
 2  CC(=O)NCC(C)(C)c1cc(-c2cn([C@@H](C)C(C)C)c(=O)c3c(N)n[nH]c23)nn1C [Example 51]                    97
 3  CN1CCN(c2cc(-c3cn(-c4c(F)cccc4C#N)c(=O)c4c(N)n[nH]c34)nn2C)CC1 [Example 70]                    97
 4  Cn1nc(-c2cn(-c3c(F)cccc3F)c(=O)c3c(N)n[nH]c23)cc1N1CCC(C)(C#N)CC1 [Example 127]                    99
 5  Cn1nc(-c2cn(C(C3CC3)C3CC3)c(=O)c3c(N)n[nH]c23)cc1N1CC[C@@H](O)C1 [Example 169]                    98
 6  CC(C1CC1)n1cc(-c2cc(N3CCOCC3)n(C)n2)c2[nH]nc(N)c2c1=O (racemic) [Example 4]                    99
 7  CC(C)C(C1CC1)n1cc(-c2cc(N3CCOCC3)n(C)n2)c2[nH]nc(N)c2c1=O (stereo not drawn) [Example 115]                    93
 8  COC1(c2cc(-c3cn([C@@H](C)C(C)C)c(=O)c4c(N)n[nH]c34)nn2C)CN(S(=O)(=O)C(C)C)C1 [Example 136]                    80
 9  CC(C)C(n1cc(-c2cc(N3CCOCC3)n(C)n2)c2[nH]nc(N)c2c1=O)C(F)(F)F (stereo not drawn) [Example 82]                    89
10  COC[C@@H]1CCCN1c1cc(-c2cn([C@@H](C)C(C)C)c(=O)c3c(N)n[nH]c23)nn1C [Example 26]                    88
11  COC[C@H]1CCCN1c1cc(-c2cn(-c3c(F)cccc3F)c(=O)c3c(N)n[nH]c23)nn1C [Example 128]                    98
12  Cn1nc(-c2cn(C(C3CC3)C3CC3)c(=O)c3c(N)n[nH]c23)cc1N1CC[C@H](O)C1 [Example 166]                   100
13  CC(C)[C@H](C)n1cc(-c2cc(C(C)(C)C(=O)N(C)C)n(C)n2)c2[nH]nc(N)c2c1=O [Example 56]                    70
14  CC(C)[C@H](C)n1cc(-c2cc(C3(O)CCOCC3)n(C)n2)c2[nH]nc(N)c2c1=O [Example 35]                    97
15  Cn1nc(-c2cn(C(C3CC3)C(F)(F)F)c(=O)c3c(N)n[nH]c23)cc1N1CCOCC1 (stereo not drawn) [Example 83]                    99
